Assign fraction ligated to each entry below.
B1: minF1; a variant is named by its letters at N, in order (parent)
chain: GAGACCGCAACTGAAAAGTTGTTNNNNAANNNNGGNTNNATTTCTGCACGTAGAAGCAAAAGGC

variants of: B1; experiment: fraction ligated after 30 min (ligated reads / total reads); higher = more ligase activity; conditions: with F1*subA RNA substrate (template-directed ligation), 42 °C

- mutationNotation: "TCGATGGAGTT G34T T37G"
  fraction ligated: 0.00201
- mutationNotation: "GAAAGATGTGA T23A A28T A29G"
  fraction ligated: 0.00194
- mutationNotation: "TCAGTGGTGTA"
  fraction ligated: 0.00201

Let us move to another entry and its fraction ligated.
Q: Fill in fraction ligated for record ACAGGGAGTGA
Result: 0.00202
